target: FP receptors (Swiss 3T3 cells expressing FP receptors) (Mus musculus); construct: endogenous in cells; host or cells: Swiss 3T3 cells; test: FP receptor-mediated phosphoinositide turnover assay; type: cell-based; details: Swiss-3T3, 1 h; Table 1; efficacy relative to standard full agonist (100%); read-out: FP functional (%) agonistic activity
Sequence (P43117 whole entry): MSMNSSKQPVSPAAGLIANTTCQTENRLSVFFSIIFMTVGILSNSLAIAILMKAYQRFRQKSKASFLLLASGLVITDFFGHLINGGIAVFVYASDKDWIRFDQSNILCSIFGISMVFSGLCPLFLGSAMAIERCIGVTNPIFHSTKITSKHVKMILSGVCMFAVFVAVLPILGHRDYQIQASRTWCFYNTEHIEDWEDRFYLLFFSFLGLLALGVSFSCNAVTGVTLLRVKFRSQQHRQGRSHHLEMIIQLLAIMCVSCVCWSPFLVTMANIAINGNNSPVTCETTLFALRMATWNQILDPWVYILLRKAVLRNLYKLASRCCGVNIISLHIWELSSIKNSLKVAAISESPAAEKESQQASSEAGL
quantity: Emax (%)
One number for each entry, in %.

# count of solved cases: 5
- query smiles: "O=C(O)CCC/C=C\\C[C@H]1[C@@H](O)CO[C@@H]1/C=C/[C@H](O)COc1cccc(Cl)c1"
  u: "%"
  Emax: 67
- query smiles: "O=C(O)CCC/C=C\\C[C@H]1[C@@H](O)CO[C@@H]1/C=C/[C@H](O)COc1cccc(C(F)(F)F)c1"
  u: "%"
  Emax: 43
- query smiles: "O=C(O)CCC/C=C\\C[C@@H]1[C@@H](OC[C@H](O)COc2cccc(Cl)c2)[C@H](O)C[C@@H]1O"
  u: "%"
  Emax: 56
- query smiles: "O=C(O)CCC/C=C\\C[C@H]1CC[C@@H](O)[C@@H]1CC[C@@H](O)CCc1ccccc1"
  u: "%"
  Emax: 60
- query smiles: "O=C(O)CCC/C=C\\C[C@H]1[C@@H](O)CO[C@@H]1/C=C/[C@@H](O)COc1ccc(F)cc1"
  u: "%"
  Emax: 78

Hello, I would appreciate it if you could give Emax for each entry below.
1. O=C(O)CC/C=C\CC[C@H]1[C@@H](O)CO[C@@H]1/C=C/[C@@H](O)COc1cccc(Cl)c1
2. O=C(O)CCC/C=C\C[C@@H]1[C@@H](/C=C/[C@H](F)COc2cccc(Cl)c2)[C@H](O)C[C@@H]1O

A)
[82, 76]
